Data provenance: the NIST ThermoML archive (doi:10.1021/je300487n)

Details: 313.15 K; 101.33 kPa; Liquid; Vibrating tube method
Numbers after ± are expanded uncertainties.
property_name: mass density
Report the figure along with its unit, number first.

Below are worked cases with known answers.
CC(=O)[O-].CCCC[N+]1(C)CCCC1 [1-butyl-1-methylpyrrolidinium acetate]
1012.1 ± 2.5 kg/m3
CC(=O)O.CCN(C)C [N,N-dimethylethanamine acetate]
1004.4 ± 0.3 kg/m3
CC(=O)[O-].CCCCn1cc[n+](C)c1 [1-butyl-3-methylimidazolium acetate]
1043 ± 0.3 kg/m3

QUERY: Annotate the compound CC(=O)[O-].CCn1cc[nH+]c1 [1-ethyl-1H-imidazolium acetate] with its measured mass density.
RESULT: 1021.3 ± 2.5 kg/m3
